# assayComment: xn = mol fraction of the nth substance listed, in the solute-free solvent
# measurementContext: 298.15 K; x2 = 0.1666
propertyMeasured: solubility (g/100 g solution)
When you answer, write just the number.

Data request: Looking for the measured solubility (g/100 g solution) of CC(=O)Nc1ccc(OC(=O)c2ccccc2OC(C)=O)cc1 + CC(C)O + O , can you help?
Data returned: 0.0855

Data request: Next molecule up: COC(=O)C1=C(C)NC(C)=C(C(=O)OCC(C)C)C1c1ccccc1[N+](=O)[O-] (stereo not given) + CC(C)O + O
Data returned: 3.8

Data request: Next molecule up: CS(=O)(=O)c1ccc(C(O)C(CF)NC(=O)C(Cl)Cl)cc1 (stereo not given) + CC(C)O + O
Data returned: 0.608

Data request: Next molecule up: COC(=O)C1=C(C)NC(C)=C(C(=O)OCC(C)C)C1c1ccccc1[N+](=O)[O-] (stereo not given) + CCCO + O
Data returned: 3.1

Data request: Next molecule up: O=[N+]([O-])c1cc[nH]n1 + CCCO + O
Data returned: 1.76

###

# assayComment: xn = mol fraction of the nth substance listed, in the solute-free solvent
# measurementContext: 298.15 K; x2 = 0.6101
propertyMeasured: solubility (g/100 g solution)
When you answer, write just the number.

O=[N+]([O-])c1cc[nH]n1 + CCO + O	4.09
COC(=O)C1=C(C)NC(C)=C(C(=O)OCC(C)C)C1c1ccccc1[N+](=O)[O-] (centres undefined) + CCO + O	5
CS(=O)(=O)c1ccc(C(O)C(CF)NC(=O)C(Cl)Cl)cc1 (centres undefined) + CCO + O	2.42

Here is the next item to consider.
Data request: Looking for the measured solubility (g/100 g solution) of CC(=O)Nc1ccc(OC(=O)c2ccccc2OC(C)=O)cc1 + CCO + O , can you help?
Data returned: 0.396

###

# assayComment: xn = mol fraction of the nth substance listed, in the solute-free solvent
# measurementContext: 298.15 K; x2 = 0.03225
The entries below are paired with their reported solubility (g/100 g solution).
When you answer, write just the number.

CC(=O)Nc1ccc(OC(=O)c2ccccc2OC(C)=O)cc1 + CC(C)O + O	0.0115
COC(=O)C1=C(C)NC(C)=C(C(=O)OCC(C)C)C1c1ccccc1[N+](=O)[O-] (centres undefined) + CCCO + O	0.346
O=[N+]([O-])c1cc[nH]n1 + CCCO + O	0.616

Here is the next item to consider.
Data request: Looking for the measured solubility (g/100 g solution) of CS(=O)(=O)c1ccc(C(O)C(CF)NC(=O)C(Cl)Cl)cc1 (centres undefined) + CC(C)O + O , can you help?
Data returned: 0.246

###

# assayComment: xn = mol fraction of the nth substance listed, in the solute-free solvent
# measurementContext: 288.15 K; x2 = 0.03225
The entries below are paired with their reported solubility (g/100 g solution).
When you answer, write just the number.

Solved cases below.
CS(=O)(=O)c1ccc(C(O)C(CF)NC(=O)C(Cl)Cl)cc1 (centres undefined) + CC(C)O + O	0.146
COC(=O)C1=C(C)NC(C)=C(C(=O)OCC(C)C)C1c1ccccc1[N+](=O)[O-] (centres undefined) + CCCO + O	0.219

Data request: Looking for the measured solubility (g/100 g solution) of CC(=O)Nc1ccc(OC(=O)c2ccccc2OC(C)=O)cc1 + CC(C)O + O , can you help?
Data returned: 0.0057

Data request: Next compound up: O=[N+]([O-])c1cc[nH]n1 + CCCO + O
Data returned: 0.349

###

# assayComment: xn = mol fraction of the nth substance listed, in the solute-free solvent
# measurementContext: 293.15 K; x2 = 0.9
propertyMeasured: solubility (g/100 g solution)

Solved cases below.
O=c1ccc2ccccc2o1 + CO + O	17.5
CC1(C)SC2C(NC(=O)C(NC(=O)N3CCNC3=O)c3ccccc3)C(=O)N2C1C(=O)O (stereo not drawn) + CO + CC(C)O	0.507
O=c1ccc2ccccc2o1 + CC(C)=O + O	48
CC1(C)SC2C(NC(=O)C(NC(=O)N3CCNC3=O)c3ccccc3)C(=O)N2C1C(=O)O (stereo not drawn) + CCO + CC(C)O	0.927
CCOC(=O)C1=CC2(CC)CCCN3CCc4c(n1c1ccccc41)C32 (stereo not drawn) + CCO + O	0.609

Data request: Looking for the measured solubility (g/100 g solution) of CCCCN1CCCCC1C(=O)Nc1c(C)cccc1C.Cl.O (stereo not drawn) + CCO + O , can you help?
Data returned: 3.83

Data request: Next compound up: O=c1[nH]cc(F)c(=O)[nH]1 + CO + C1CCOC1
Data returned: 0.789

Data request: Next compound up: CCCCN1CCCCC1C(=O)Nc1c(C)cccc1C.Cl.O (stereo not drawn) + CO + O
Data returned: 8.65

###

# assayComment: xn = mol fraction of the nth substance listed, in the solute-free solvent
# measurementContext: 313.15 K; x2 = 0.03225
The entries below are paired with their reported solubility (g/100 g solution).
When you answer, write just the number.

Solved cases below.
CC(=O)Nc1ccc(OC(=O)c2ccccc2OC(C)=O)cc1 + CC(C)O + O	0.0296
CS(=O)(=O)c1ccc(C(O)C(CF)NC(=O)C(Cl)Cl)cc1 (centres undefined) + CC(C)O + O	0.515
O=[N+]([O-])c1cc[nH]n1 + CCCO + O	1.33

Here is the next item to consider.
Data request: Looking for the measured solubility (g/100 g solution) of COC(=O)C1=C(C)NC(C)=C(C(=O)OCC(C)C)C1c1ccccc1[N+](=O)[O-] (centres undefined) + CCCO + O , can you help?
Data returned: 0.638

###

# assayComment: xn = mol fraction of the nth substance listed, in the solute-free solvent
# measurementContext: 288.15 K; x2 = 0.08908
propertyMeasured: solubility (g/100 g solution)
When you answer, write just the number.

CS(=O)(=O)c1ccc(C(O)C(CF)NC(=O)C(Cl)Cl)cc1 (centres undefined) + CCO + O	0.39
COC(=O)C1=C(C)NC(C)=C(C(=O)OCC(C)C)C1c1ccccc1[N+](=O)[O-] (centres undefined) + CCO + O	0.648
CC(=O)Nc1ccc(OC(=O)c2ccccc2OC(C)=O)cc1 + CCO + O	0.0171

Here is the next item to consider.
Data request: Looking for the measured solubility (g/100 g solution) of O=[N+]([O-])c1cc[nH]n1 + CCO + O , can you help?
Data returned: 0.385

###

# assayComment: xn = mol fraction of the nth substance listed, in the solute-free solvent
# measurementContext: 308.15 K; x2 = 0.2068
propertyMeasured: solubility (g/100 g solution)
When you answer, write just the number.

CS(=O)(=O)c1ccc(C(O)C(CF)NC(=O)C(Cl)Cl)cc1 (centres undefined) + CCO + O	2.15
O=[N+]([O-])c1cc[nH]n1 + CCO + O	1.48
CC(=O)Nc1ccc(OC(=O)c2ccccc2OC(C)=O)cc1 + CCO + O	0.221

Data request: Looking for the measured solubility (g/100 g solution) of COC(=O)C1=C(C)NC(C)=C(C(=O)OCC(C)C)C1c1ccccc1[N+](=O)[O-] (centres undefined) + CCO + O , can you help?
Data returned: 3.94

###

# assayComment: xn = mol fraction of the nth substance listed, in the solute-free solvent
# measurementContext: 318.15 K; x2 = 0.7
The entries below are paired with their reported solubility (g/100 g solution).
When you answer, write just the number.

Solved cases below.
CN1CCN(C(=O)OC2c3nccnc3C(=O)N2c2ccc(Cl)cn2)CC1 (centres undefined) + C1CCOC1 + O	6.19
CCCCN1CCCCC1C(=O)Nc1c(C)cccc1C.Cl.O (centres undefined) + CCO + O	12.3
CC1(C)SC2C(NC(=O)C(NC(=O)N3CCNC3=O)c3ccccc3)C(=O)N2C1C(=O)O (centres undefined) + CO + CC(C)O	0.889

Here is the next item to consider.
Data request: Looking for the measured solubility (g/100 g solution) of CN1CCN(C(=O)OC2c3nccnc3C(=O)N2c2ccc(Cl)cn2)CC1 (centres undefined) + CC#N + O , can you help?
Data returned: 6.74

###

The entries below are paired with their reported solubility (g/100 g solution).
# assayComment: xn = mol fraction of the nth substance listed, in the solute-free solvent
# measurementContext: 308.15 K; x2 = 0.08908

CS(=O)(=O)c1ccc(C(O)C(CF)NC(=O)C(Cl)Cl)cc1 (centres undefined) + CCO + O	1.06
COC(=O)C1=C(C)NC(C)=C(C(=O)OCC(C)C)C1c1ccccc1[N+](=O)[O-] (centres undefined) + CCO + O	1.42
CC(=O)Nc1ccc(OC(=O)c2ccccc2OC(C)=O)cc1 + CCO + O	0.0629

Here is the next item to consider.
Data request: Looking for the measured solubility (g/100 g solution) of O=[N+]([O-])c1cc[nH]n1 + CCO + O , can you help?
Data returned: 0.87
